TESTED_TARGET: Human neutrophil elastase (Homo sapiens, UniProt P08246 P08246:30-267)
Sequence (P08246 30-267, one chain of several): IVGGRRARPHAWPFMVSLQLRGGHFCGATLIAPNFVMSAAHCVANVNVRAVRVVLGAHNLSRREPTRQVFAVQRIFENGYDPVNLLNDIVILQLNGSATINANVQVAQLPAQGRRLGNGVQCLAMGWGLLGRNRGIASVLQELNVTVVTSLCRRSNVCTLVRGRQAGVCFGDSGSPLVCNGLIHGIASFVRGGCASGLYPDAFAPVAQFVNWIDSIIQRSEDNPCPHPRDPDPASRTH
METHOD_NOTES: filter; 6 mM KCl, 2 mM MgCl2, pH 7.0
CONDITION_INFO: tags: Athens Research and Technology
MEASUREMENT_LABEL: pKd
Just the number, please; pKd means minus log10 of the concentration in mol/L.

Query: Look up pKd for this binder: ligand 4 (class V) (ssRNA, 2'-NH2 all pyrimidines) RNA: GGGAGCUCAGAAUAAACGCUCAACGGAUCGGGCGGUCGUCUAGCGGGAUGGCGUGCGGGUGGAUUCGACAUGAGGCCCGGAUCCGGC
Reply: 6.76

Query: ligand 46 (class VI) (ssRNA, 2'-NH2 all pyrimidines) RNA: GGGAGCUCAGAAUAAACGCUCAAUGGAUAGCGCUGCGUGACCGCGCUGGGGGGGUUGGCAGGGUUCGACAUGAGGCCCGGAUCCGGC ?
Reply: 7.89

Query: ligand 26 (class III) (ssRNA, 2'-NH2 all pyrimidines) RNA: GGGAGCUCAGAAUAAACGCUCAACGCCUUAGUCGCCAUAAUGCUGUCGGGGUGGAUAGGGUGGUUCGACAUGAGGCCCGGAUCCGGC ?
Reply: 7.42

Query: ligand 19 (class IV) (ssRNA, 2'-NH2 all pyrimidines) RNA: GGGAGCUCAGAAUAAACGCUCAAUGCCCGGCAGUACUGCACGGCCUCGGGGGGGACCAGGGAGUUCGACAUGAGGCCCGGAUCCGGC ?
Reply: 8.10

Query: ligand 14 (class II) (ssRNA, 2'-NH2 all pyrimidines) RNA: GGGAGCUCAGAAUAAACGCUCAAGGCAGACAUACGCCUUGGGGGGGUUUCAGGGUAUAUGGCAUUCGACAUGAGGCCCGGAUCCGGC ?
Reply: 7.77

Query: ligand 22 (class V) (ssRNA, 2'-NH2 all pyrimidines) RNA: GGGAGCUCAGAAUAAACGCUCAAGGCCCUCUGAACCGUCUGGGCGUGGUUAGUGGGUGGCUUCGACAUGAGGCCCGGAUCCGGC ?
Reply: 7.62
